Origin of values: paper PMC9418147

# Experimental System: IL17A (Homo sapiens, UniProt Q16552)

- Compound: "O=C(O)c1cc(NCc2ccccc2OCCOCCOCCOc2ccccc2CNc2cc(C(=O)O)cc(-c3ccnc4ccccc34)c2)cc(-c2ccnc3ccccc23)c1 [Cmpd 10]"
  Value Unit: "nM"
  IC50: 107

---

# Experimental System: IL17A (Homo sapiens, UniProt Q16552)
# Construct: Biotinylated Avi-tag IL17A-(24–155) was produced by enzymatic biotinylation; 6His-MBP (N, cleaved yes); made in house; host or cells: Escherichia coli Shuffle T7 express (NEB)
# Method: Isothermal titration calorimetry with IL17A dimer
# Type: binding
# Cond: reverse titration, 50 mM sodium phosphate pH 7.0; read-out: ITC affinity (KD)
Readout: Kd (nM)

- Smiles String: "O=C(O)c1cc(NCc2ccccc2OCCOCCOCCOc2ccccc2CNc2cc(C(=O)O)cc(-c3ccnc4ccccc34)c2)cc(-c2ccnc3ccccc23)c1"
  Value Unit: "nM"
  Val: 44

---

# Experimental System: IL17A (Homo sapiens, UniProt Q16552, C129S)
# Construct: For crystallography, NMR and early SPR studies, IL17A (34–155)C129S; Trx-6His (N, cleaved yes)
# Sequence (Q16552 34-155 C129S): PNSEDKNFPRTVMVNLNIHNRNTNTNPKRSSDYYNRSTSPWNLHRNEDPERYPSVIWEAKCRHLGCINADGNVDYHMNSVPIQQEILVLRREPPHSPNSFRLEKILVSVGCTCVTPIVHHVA
# Method: 2D NMR titration of compound binding to IL17A
pKd: −log10 of the molar value.
Readout: pKd

- Smiles String: "c1ccc(CNc2cncc(-c3ccc4[nH]nc(NCCN5CCOCC5)c4c3)c2)cc1"
  Readout: "pKd"
  Val: 4.92

---

# Experimental System: IL17A-IL17RA-Fc complex (Homo sapiens)
# Construct: purchased R&D Systems
# Method: IL17A-IL17RA-Fc AlphaLISA assay
# Type: biochemical
# Cond: inhibition of IL17A/IL17RA-Fc interactions; read-out: IL17A/IL17RA-Fc IC50
Readout: IC50 (nM)

- Molecule: "O=C(O)c1cc(NCc2ccccc2OCCOCCOCCOc2ccccc2CNc2cc(C(=O)O)cc(-c3ccnc4ccccc34)c2)cc(-c2ccnc3ccccc23)c1 [Cmpd 10]"
  Val: 740

---

# Experimental System: IL17A-IL17RA-Fc complex (Homo sapiens, UniProt Q16552)
# Construct: purchased R&D Systems
# Sequence (Q16552 24-155, one chain of several): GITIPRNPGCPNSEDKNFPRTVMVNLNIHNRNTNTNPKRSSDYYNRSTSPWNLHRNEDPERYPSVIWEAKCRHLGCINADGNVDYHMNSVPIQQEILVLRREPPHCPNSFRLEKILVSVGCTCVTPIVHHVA
# Method: IL17A-IL17RA-Fc AlphaLISA assay
# Assay type: biochemical
# Cond: disruption of IL17A-IL17RA-Fc complex formation; read-out: IL17A/IL17RA-Fc AlphaLISA IC50
pIC50: −log10 of the molar value.
Readout: pIC50

- Compound: "O=C(COc1ccccc1CNc1cc(C(=O)O)cc(-c2ccnc3ccccc23)c1)NCCOCCOc1ccccc1CNc1cc(C(=O)O)cc(-c2ccnc3ccccc23)c1 [Cmpd 9]"
  Val: 5.89
